Experiment: Tmax in Sprague-Dawley rat liver at 10 mg/kg, po
Format: ADME, organism-based
readoutLabel: Tmax (min)
Reply with just the number (in min).

Reported Tmax, molecule CCC[C@@H](CCO)Nc1nc(N)nc2c(F)cccc12 : ____
30

====

Assay: Intrinsic clearance in human liver microsomes assessed per mg protein at 1 uM up to 60 mins
Assay type: ADME, microsome
Settings: read-out: CLH
readoutLabel: microsomal CLint at 1 µM (µL/min/mg)
Reply with just the number (in µL/min/mg).

Reported microsomal CLint at 1 µM, compound CCC[C@@H](CCO)Nc1nc(N)nc2c(F)cccc12 : ____
8

====

Target: UniProtKB Q9NR97
Sequence (Q9NR97 whole entry): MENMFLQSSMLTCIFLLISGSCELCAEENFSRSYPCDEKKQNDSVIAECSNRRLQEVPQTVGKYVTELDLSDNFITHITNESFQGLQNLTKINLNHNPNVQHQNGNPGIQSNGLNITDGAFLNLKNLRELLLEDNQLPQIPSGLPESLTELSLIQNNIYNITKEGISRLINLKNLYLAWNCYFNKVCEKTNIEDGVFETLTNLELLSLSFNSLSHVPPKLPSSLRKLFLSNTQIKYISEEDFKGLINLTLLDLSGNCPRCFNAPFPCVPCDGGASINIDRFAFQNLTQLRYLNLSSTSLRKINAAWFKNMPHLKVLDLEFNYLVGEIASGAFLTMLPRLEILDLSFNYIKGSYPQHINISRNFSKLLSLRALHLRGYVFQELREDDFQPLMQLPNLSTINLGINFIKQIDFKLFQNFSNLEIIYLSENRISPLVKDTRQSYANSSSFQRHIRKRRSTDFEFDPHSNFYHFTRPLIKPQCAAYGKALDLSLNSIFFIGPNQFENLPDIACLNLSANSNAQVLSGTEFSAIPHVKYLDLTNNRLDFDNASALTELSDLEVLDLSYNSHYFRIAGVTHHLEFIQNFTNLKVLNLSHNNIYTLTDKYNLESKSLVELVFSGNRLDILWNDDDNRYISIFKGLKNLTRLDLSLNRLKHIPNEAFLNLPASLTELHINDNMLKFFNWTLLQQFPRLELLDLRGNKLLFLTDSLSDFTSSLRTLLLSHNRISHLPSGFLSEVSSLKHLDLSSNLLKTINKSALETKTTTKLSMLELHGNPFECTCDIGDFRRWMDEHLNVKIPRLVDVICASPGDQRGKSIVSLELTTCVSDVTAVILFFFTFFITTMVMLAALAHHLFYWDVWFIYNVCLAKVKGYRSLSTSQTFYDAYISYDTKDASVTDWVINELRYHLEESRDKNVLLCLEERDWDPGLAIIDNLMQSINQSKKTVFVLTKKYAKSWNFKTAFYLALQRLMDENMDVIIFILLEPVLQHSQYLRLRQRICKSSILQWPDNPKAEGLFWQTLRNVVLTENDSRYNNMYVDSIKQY
Assay: Agonist activity at human TLR8 expressed in HEK293 cells assessed as induction of receptor activation incubated for 6 hrs by NF-kappaB-luciferase reporter gene assay
Format: cell-based
# MEC listing for each entry below
Your answer should be a number followed by the unit of measure.

Known results for compounds:
CCCC[C@@H](CCO)Nc1nc(N)nc2cc(OC)ccc12; 0.16 µM
CC[C@@H](CO)Nc1nc(N)nc2ccccc12; 0.19 µM
CCCC[C@@H](CCO)Nc1nc(N)nc2cc(F)ccc12; 0.03 µM
CCC[C@@H](CCO)Nc1nc(N)nc2cc(OC)ccc12; 0.13 µM
CC(C)C[C@@H](CO)Nc1nc(N)nc2ccccc12; 0.45 µM
CCCC[C@@H](CCO)Nc1nc(N)nc2cc(C)ccc12; 0.06 µM
CCC[C@@H](CCO)Nc1nc(N)nc2ccccc12; 0.11 µM
CCC[C@@H](CCO)Nc1nc(N)nc2c(F)cccc12; 0.16 µM

Reported MEC, compound CCC[C@@H](CCO)Nc1nc(N)nc2ccc(F)cc12 : ____
0.42 µM

Entry CCCC[C@H](CO)Nc1nc(N)nc2ccccc12 please
0.05 µM

Entry CCC[C@@H](CCO)Nc1nc(N)nc2cc(F)ccc12 please
0.04 µM

Entry CCC[C@@H](CCO)Nc1nc(N)nc2cccc(C)c12 please
0.14 µM

Entry CCCC[C@@H](CCO)Nc1nc(N)nc2cccc(F)c12 please
0.1 µM

Entry CCCC[C@@H](CCO)Nc1nc(N)nc2ccc(F)cc12 please
0.42 µM

Entry CCCC[C@@H](CCO)Nc1nc(N)nc2ccc(C)cc12 please
0.25 µM

Entry CCC[C@@H](CCO)Nc1nc(N)nc2ccc(C)cc12 please
0.45 µM

Entry CCCC[C@@H](CCO)Nc1nc(N)nc2ccc(OC)cc12 please
2.81 µM

Entry CCC[C@H](CO)Nc1nc(N)nc2ccccc12 please
0.57 µM

Entry CCCC[C@@H](CCO)Nc1nc(N)nc2cccc(C)c12 please
0.06 µM

Entry CCC[C@@H](CCO)Nc1nc(N)nc2cc(C)ccc12 please
0.05 µM
